molecular target: GST-Mcl-1; test: competitive FP assay: displacement of fluorescein-labeled Bak from GST-Mcl-1
Sequence (Q07820 whole entry): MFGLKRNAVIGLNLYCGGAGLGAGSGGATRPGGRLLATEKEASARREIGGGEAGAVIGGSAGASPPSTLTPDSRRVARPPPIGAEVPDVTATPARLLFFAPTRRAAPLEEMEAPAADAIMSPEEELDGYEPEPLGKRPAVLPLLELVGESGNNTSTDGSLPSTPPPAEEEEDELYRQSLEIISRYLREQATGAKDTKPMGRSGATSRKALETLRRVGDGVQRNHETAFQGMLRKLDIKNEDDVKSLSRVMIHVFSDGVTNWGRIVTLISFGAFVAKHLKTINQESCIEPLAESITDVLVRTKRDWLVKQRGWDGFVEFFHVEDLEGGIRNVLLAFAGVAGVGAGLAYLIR
pIC50: −log10 of the molar value.
quantity_measured: pIC50

[[record]]
binder = "AAXLRRIGDXVNLRQKLLN (D-cysteine at position 3; D-Cys 3 and L-Cys 10 cross-linked by Bph; N-terminal acetyl; C-terminal amide) [Cross-linked Noxa peptide 6a (Bph, D-Cys 77 / L-Cys 84)]"
quantity_measured = "pIC50"
observed_value = 7.14

[[record]]
binder = "AAXLRRIGDXVNLRQKLLN (Cys 3 and Cys 10 of the peptide (NoxaB 77 and 84) cross-linked by Bpy; N-terminal acetyl; C-terminal amide) [Cross-linked Noxa peptide 5b (Bpy, L,L-cysteines at 77/84)]"
quantity_measured = "pIC50"
observed_value = 7.35

[[record]]
binder = "AAXLRRIGDXVNLRQKLLN (alpha-methyl-L-cysteine at positions 3 and 10, cross-linked by Bph; N-terminal acetyl; C-terminal amide) [Cross-linked Noxa peptide 8a (Bph, alpha-methyl-L-cysteines at 77/84)]"
quantity_measured = "pIC50"
observed_value = 6.64

[[record]]
binder = "AAXLRRIGDXVNLRQKLLN (Cys 3 and Cys 10 of the peptide (NoxaB 77 and 84) cross-linked by Bph; N-terminal acetyl; C-terminal amide) [Cross-linked Noxa peptide 5a (Bph, L,L-cysteines at 77/84)]"
quantity_measured = "pIC50"
observed_value = 7.74

[[record]]
binder = "AAXLRRIGDXVNLRQKLLN (D-cysteine at position 3; D-Cys 3 and L-Cys 10 cross-linked by Bpy; N-terminal acetyl; C-terminal amide) [Cross-linked Noxa peptide 6b (Bpy, D-Cys 77 / L-Cys 84)]"
quantity_measured = "pIC50"
observed_value = 6.85

